measurement-notes: Metabolic stability in human hepatocytes assessed as intrinsic clearance measured per million cells
Format: ADME, cell-based, Hepatocyte
assay-conditions: read-out: CLH
Measured hepatocyte CLint, listed per entry for reference.
Entry rule: numbers only, all in µL/min/1e6 cells.

In the examples that follow, each entry is paired with its recorded hepatocyte CLint.
{"columns": ["given-smiles", "hepatocyte CLint, µL/min/1e6 cells"],
 "data": [
  ["Cc1cc(C)c(-c2cn(C)cn2)cc1NC(=O)c1ccc(OCc2ccccn2)cc1", 6],
  ["Cc1cc(C)c(-c2ncc[nH]2)cc1NC(=O)c1ccc(OCc2ccccn2)cc1", 9]
]}

Proceeding to the next compound to report its hepatocyte CLint.
Record summary for Cc1cc(C)c(-c2cnc(C)n2C)cc1NC(=O)c1ccc(OCc2ccccn2)cc1 : reported hepatocyte CLint = 12

* * *

measurement-notes: Lipophilicity, logD of compound
Assay type: physicochemical
assay-conditions: octanol/water
measurement-kind: logD

In the examples that follow, each entry is paired with its recorded logD.
{"columns": ["given-smiles", "measurement-kind", "experimental-result"],
 "data": [
  ["Cc1cc(Cl)c(-c2nccn2C)cc1NC(=O)c1ccc(OCc2ccccn2)cc1", "logD", 3.2],
  ["Cc1cc(C)c(-c2cn(C)cn2)cc1NC(=O)c1ccc(OCc2ccccn2)cc1", "logD", 3],
  ["Cc1ccc(-c2cnc(C)n2C)cc1NC(=O)c1ccc(OCc2ccccn2)cc1", "logD", 2.8]
]}

Record summary for Cc1cc(C)c(-c2nc3ccccc3[nH]2)cc1NC(=O)c1ccc(OCc2ccccn2)cc1 : reported logD = > 3.5

Record summary for Cc1cc(F)c(-c2ncc[nH]2)cc1NC(=O)c1ccc(OCc2ccccn2)cc1 : reported logD = 3

Record summary for Cc1ccc(-c2[nH]cnc2C)cc1NC(=O)c1ccc(OCc2ccccn2)cc1 : reported logD = 2.9

Record summary for Cc1ccc(-c2cn(C)c(C)n2)cc1NC(=O)c1ccc(OCc2ccccn2)cc1 : reported logD = 2.7

* * *

measurement-notes: Oral bioavailability in rat
Format: ADME, organism-based
assay-conditions: in vivo
Measured bioavailability, listed per entry for reference.

In the examples that follow, each entry is paired with its recorded bioavailability.
{"columns": ["given-smiles", "measurement-kind", "experimental-result"],
 "data": [
  ["Cc1cc(C)c(-c2ncc[nH]2)cc1NC(=O)c1ccc(OCc2ccccn2)cc1", "bioavailability", "100%"],
  ["Cc1cc(C)c(-c2cn(C)cn2)cc1NC(=O)c1ccc(OCc2ccccn2)cc1", "bioavailability", "90%"]
]}

Proceeding to the next compound to report its bioavailability.
Record summary for CS(=O)(=O)c1ccc(C(=O)Nc2ccc(Cl)c(-c3ccccn3)c2)c(Cl)c1 : reported bioavailability = 49%

* * *

measurement-notes: Drug level in mouse plasma at 40 mg/kg, po administered as single dose measured after 8 hrs
Assay type: ADME, organism-based
Binary label based on concentration at 8 h with cut-off 300 nM: below gives t, not below gives f.

{"columns": ["given-smiles", "class-name"],
 "data": [
  ["Cc1cc(C)c(-c2cnc(C)n2C)cc1NC(=O)c1ccc(OCc2ccccn2)cc1", "t"],
  ["Cc1cc(C)c(-c2ccc(N)nn2)cc1NC(=O)c1ccc(OCc2ccccn2)cc1", "f"],
  ["Cc1ccc(-c2ncc[nH]2)cc1NC(=O)c1ccc(OCc2ccccn2)cc1", "f"],
  ["Cc1ccc(-c2cnc(C)n2C)cc1NC(=O)c1ccc(OCc2ccccn2)cc1", "t"]
]}

Prompt line: Field: below-cutoff. Rule: recorded concentration at 8 h strictly less than 300 nM. Subject: Cc1cc(C)c(-c2c[nH]nc2C)cc1NC(=O)c1ccc(OCc2ccccn2)cc1
Response line: t

* * *

measurement-notes: Metabolic stability in dog hepatocytes assessed as intrinsic clearance measured per million cells
Format: ADME, cell-based, Canis lupus familiaris, Hepatocyte
assay-conditions: read-out: CLH
measurement-kind: hepatocyte CLint (µL/min/1e6 cells)
Entry rule: numbers only, all in µL/min/1e6 cells.

{"columns": ["given-smiles", "hepatocyte CLint / µL/min/1e6 cells"],
 "data": [
  ["Cc1cc(C)c(-c2cn(C)cn2)cc1NC(=O)c1ccc(OCc2ccccn2)cc1", 10]
]}

Proceeding to the next compound to report its hepatocyte CLint.
Record summary for Cc1cc(C)c(-c2ncc[nH]2)cc1NC(=O)c1ccc(OCc2ccccn2)cc1 : reported hepatocyte CLint = 1.4

* * *

measurement-notes: Lipophilicity, logD of compound
Assay type: physicochemical
assay-conditions: octanol/water
measurement-kind: logD
Just the number, please, no unit after it.

{"columns": ["given-smiles", "logD"],
 "data": [
  ["Cc1ccc(-c2ncc[nH]2)c(C)c1NC(=O)c1ccc(OCc2ccccn2)cc1", 2.8],
  ["Cc1cc(C)c(-c2cnc(C)n2C)cc1NC(=O)c1ccc(OCc2ccccn2)cc1", 2.8]
]}

Record summary for Cc1cc(C)c(-c2ccc(N)cn2)cc1NC(=O)c1ccc(OCc2ccccn2)cc1 : reported logD = 3.2

Record summary for Cc1cc(Cl)c(-c2cn(C)cn2)cc1NC(=O)c1ccc(OCc2ccccn2)cc1 : reported logD = 3.1

Record summary for Cc1ccc(-c2nccn2C)cc1NC(=O)c1ccc(OCc2ccccn2)cc1 : reported logD = 2.8

Record summary for Cc1nc(-c2ccc(C)c(NC(=O)c3ccc(OCc4ccccn4)cc3)c2)c[nH]1 : reported logD = 3

Record summary for Cc1cc(Cl)c(-c2cn(C)c(C)n2)cc1NC(=O)c1ccc(OCc2ccccn2)cc1 : reported logD = 3.3

* * *

measurement-notes: Volume of distribution at steady state in guinea pig
Type: ADME, Cavia porcellus
assay-conditions: in vivo, read-out: Vdss
measurement-kind: Vd

{"columns": ["given-smiles", "Vd"],
 "data": [
  ["Cc1cc(C)c(-c2ncc[nH]2)cc1NC(=O)c1ccc(OCc2ccccn2)cc1", "1.8 L/kg"]
]}

Proceeding to the next molecule to report its Vd.
Record summary for Cc1cc(C)c(-c2cn(C)cn2)cc1NC(=O)c1ccc(OCc2ccccn2)cc1 : reported Vd = 0.5 L/kg

* * *

measurement-notes: Drug level in mouse plasma at 40 mg/kg, po administered as single dose measured after 8 hrs
Type: ADME, organism-based
Measured log10(concentration at 8 h), listed per entry for reference.
Log scale reminder: concentration at 8 h in µM, then log10 taken.

In the examples that follow, each entry is paired with its recorded log10(concentration at 8 h).
{"columns": ["molecule", "experimental-result"],
 "data": [
  ["CS(=O)(=O)c1ccc(C(=O)Nc2ccc(Cl)c(-c3ccccn3)c2)c(Cl)c1 [VISMODEGIB]", 1.27],
  ["Cc1ccc(-c2ncc[nH]2)c(C)c1NC(=O)c1ccc(OCc2ccccn2)cc1", -0.85],
  ["Cc1cc(C)c(-c2ncc[nH]2)cc1NC(=O)c1ccc(OCc2ccccn2)cc1", 0.28],
  ["Cc1ccc(-c2cn(C)cn2)cc1NC(=O)c1ccc(OCc2ccccn2)cc1", 1.20],
  ["Cc1cc(C)c(-c2cn(C)cn2)cc1NC(=O)c1ccc(OCc2ccccn2)cc1", 1.20]
]}

Record summary for Cc1cc(F)c(-c2ncc[nH]2)cc1NC(=O)c1ccc(OCc2ccccn2)cc1 : reported log10(concentration at 8 h) = 1.30

* * *

measurement-notes: Clearance in dog
Type: ADME, Canis lupus familiaris
assay-conditions: in vivo
Measured clearance, listed per entry for reference.
Entry rule: numbers only, all in mL/min/kg.

{"columns": ["given-smiles", "clearance [mL/min/kg]"],
 "data": [
  ["Cc1cc(C)c(-c2cn(C)cn2)cc1NC(=O)c1ccc(OCc2ccccn2)cc1", 4.7]
]}

Proceeding to the next compound to report its clearance.
Record summary for Cc1cc(C)c(-c2ncc[nH]2)cc1NC(=O)c1ccc(OCc2ccccn2)cc1 : reported clearance = 4

* * *

measurement-notes: Drug level in mouse plasma at 40 mg/kg, po administered as single dose measured after 1 hr
Assay type: ADME, organism-based
Binary label based on concentration at 1 h with cut-off 3 µM: below gives class 1, not below gives class 0.

Field: example entries. Status: answers known.
{"columns": ["given-smiles", "class-name"],
 "data": [
  ["Cc1ccc(-c2cn(C)cn2)cc1NC(=O)c1ccc(OCc2ccccn2)cc1", "class 0"],
  ["Cc1cc(F)c(-c2ncc[nH]2)cc1NC(=O)c1ccc(OCc2ccccn2)cc1", "class 0"],
  ["Cc1ccc(-c2ncc[nH]2)c(C)c1NC(=O)c1ccc(OCc2ccccn2)cc1", "class 0"],
  ["Cc1cc(C)c(-c2cnc(C)n2C)cc1NC(=O)c1ccc(OCc2ccccn2)cc1", "class 1"]
]}

Consider now this further molecule.
Prompt line: Field: below-cutoff. Rule: recorded concentration at 1 h strictly less than 3 µM. Subject: Cc1ccc(-c2cnc(C)n2C)cc1NC(=O)c1ccc(OCc2ccccn2)cc1
Response line: class 1

* * *

Measured half-life, listed per entry for reference.
measurement-notes: Half life in guinea pig
Format: ADME, Cavia porcellus
assay-conditions: in vivo

{"columns": ["given-smiles", "half-life"],
 "data": [
  ["Cc1cc(C)c(-c2ncc[nH]2)cc1NC(=O)c1ccc(OCc2ccccn2)cc1", "1.5 h"]
]}

Record summary for Cc1cc(C)c(-c2cn(C)cn2)cc1NC(=O)c1ccc(OCc2ccccn2)cc1 : reported half-life = 4.2 h

All figures here come from ChEMBL document CHEMBL4610013.
